excited fluorescence at 600 to 900 nm relative to NADH peak at 470 nm (=1): Lung values by entry
system: cancer cells of the pancreas; experiment: Laser irradiation to an extracted organ (excited fluorescent spectrum); type: in vivo, golden hamsters; settings: golden hamster, 5 mg i.v., after 24 hours, lung
METRIC NAME: excited fluorescence at 600 to 900 nm relative to NADH peak at 470 nm (=1): Lung

[[record]]
compound = "C=Cc1c(C)c2cc3nc(c4c5[nH]c(cc6nc(cc1[nH]2)C(C)=C6CC)c(C)c5C(=O)C4C(=O)OCCOC(=O)CN(CCN(CCN(CC(=O)O)CC(=O)O)CC(=O)O)CC(=O)O)C(CCC(=O)O)C3C (centres unmarked) [DTPA--10EG PPB]"
target_or_test_system = "cancer cells of the pancreas"
test_value = 0.45

[[record]]
compound = "CCC1=C(C)c2cc3[nH]c(cc4nc(c5c6[nH]c(cc1n2)c(C)c6C(=O)C5C(=O)OCCOC(=O)C1C(=O)c2c(C)c5cc6nc(cc7[nH]c(cc8nc(c1c2[nH]5)C(CCC(=O)O)C8C)c(C)c7C(C)I)C(C)=C6CC)C(CCC(=O)O)C4C)c(C)c3C(C)I (centres unmarked)"
target_or_test_system = "cancer cells of the pancreas"
test_value = 0.20


---

tested on: cancer cells of the pancreas; experiment: Laser irradiation to an extracted organ (excited fluorescent spectrum); assay type: in vivo, golden hamsters; settings: golden hamster, 5 mg i.v., after 24 hours, cancer
METRIC NAME: excited fluorescence at 600 to 900 nm relative to NADH peak at 470 nm (=1): Cancer

[[record]]
molecule = "C=Cc1c(C)c2cc3nc(c4c5[nH]c(cc6nc(cc1[nH]2)C(C)=C6CC)c(C)c5C(=O)C4)C(CCC(=O)OCCOC(=O)CN(CCN(CCN(CC(=O)O)CC(=O)O)CC(=O)O)CC(=O)O)C3C (stereo not drawn)"
test_value = 2.20

[[record]]
molecule = "C=Cc1c(C)c2cc3nc(c4c5[nH]c(cc6nc(cc1[nH]2)C(C)=C6CC)c(C)c5C(=O)C4C(=O)OCCOC(=O)CN(CCN(CCN(CC(=O)O)CC(=O)O)CC(=O)O)CC(=O)O)C(CCC(=O)OC)C3C (stereo not drawn) [DTPA--10EG PPB--Me]"
test_value = 2.73

[[record]]
molecule = "CCC1=C(C)c2cc3[nH]c(cc4nc(c5c6[nH]c(cc1n2)c(C)c6C(=O)C5C(=O)OCCOC(=O)C1C(=O)c2c(C)c5cc6nc(cc7[nH]c(cc8nc(c1c2[nH]5)C(CCC(=O)O)C8C)c(C)c7C(C)I)C(C)=C6CC)C(CCC(=O)O)C4C)c(C)c3C(C)I (stereo not drawn)"
test_value = 0.82

